src = patent US12624044B2

Target: SMARCA2 (Homo sapiens)
Sequence (P51531 whole entry): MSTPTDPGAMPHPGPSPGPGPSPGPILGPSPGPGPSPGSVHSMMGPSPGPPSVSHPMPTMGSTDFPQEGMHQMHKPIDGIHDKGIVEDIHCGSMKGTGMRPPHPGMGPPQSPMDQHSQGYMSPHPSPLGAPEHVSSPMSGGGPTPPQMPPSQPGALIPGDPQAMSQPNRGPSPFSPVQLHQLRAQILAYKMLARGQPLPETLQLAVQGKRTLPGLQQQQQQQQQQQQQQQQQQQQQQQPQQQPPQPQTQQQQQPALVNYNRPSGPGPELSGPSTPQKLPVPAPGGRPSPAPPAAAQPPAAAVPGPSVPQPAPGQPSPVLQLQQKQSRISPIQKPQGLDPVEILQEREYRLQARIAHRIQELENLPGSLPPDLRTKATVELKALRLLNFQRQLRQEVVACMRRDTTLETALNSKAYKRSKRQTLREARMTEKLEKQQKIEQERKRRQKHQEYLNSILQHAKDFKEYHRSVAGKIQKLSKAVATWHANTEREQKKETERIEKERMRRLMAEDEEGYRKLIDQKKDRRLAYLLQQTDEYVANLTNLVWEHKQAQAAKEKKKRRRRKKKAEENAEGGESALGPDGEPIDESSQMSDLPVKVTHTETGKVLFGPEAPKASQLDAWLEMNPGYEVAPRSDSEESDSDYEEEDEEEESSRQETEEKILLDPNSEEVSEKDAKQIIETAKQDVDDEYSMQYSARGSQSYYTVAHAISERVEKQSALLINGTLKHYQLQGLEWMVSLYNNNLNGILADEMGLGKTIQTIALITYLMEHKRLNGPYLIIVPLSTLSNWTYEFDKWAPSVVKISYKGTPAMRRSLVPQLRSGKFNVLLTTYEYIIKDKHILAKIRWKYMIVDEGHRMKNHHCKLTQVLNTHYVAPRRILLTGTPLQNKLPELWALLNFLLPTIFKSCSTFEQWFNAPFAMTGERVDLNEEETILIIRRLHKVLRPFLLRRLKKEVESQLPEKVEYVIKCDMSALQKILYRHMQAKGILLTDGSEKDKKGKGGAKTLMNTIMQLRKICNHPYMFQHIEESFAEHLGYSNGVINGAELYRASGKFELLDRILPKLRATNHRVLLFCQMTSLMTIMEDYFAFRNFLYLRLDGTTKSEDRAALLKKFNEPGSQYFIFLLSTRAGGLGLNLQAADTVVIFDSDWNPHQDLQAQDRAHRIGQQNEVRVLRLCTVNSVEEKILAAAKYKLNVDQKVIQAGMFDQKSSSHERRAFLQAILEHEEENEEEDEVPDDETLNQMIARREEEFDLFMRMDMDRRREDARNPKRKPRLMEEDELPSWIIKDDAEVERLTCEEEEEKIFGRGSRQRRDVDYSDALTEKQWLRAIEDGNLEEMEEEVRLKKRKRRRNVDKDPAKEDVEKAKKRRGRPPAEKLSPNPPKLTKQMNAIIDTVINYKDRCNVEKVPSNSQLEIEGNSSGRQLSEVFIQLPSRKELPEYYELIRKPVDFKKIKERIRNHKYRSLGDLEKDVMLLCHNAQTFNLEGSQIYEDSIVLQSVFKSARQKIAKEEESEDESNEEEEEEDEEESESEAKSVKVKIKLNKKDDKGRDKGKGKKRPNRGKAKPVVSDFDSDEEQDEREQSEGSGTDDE
Experiment: MSD SMARCA2 degradation in NCI-H1299 cell line (24 h)
Format: cell-based
Set-up: HC: NCI-H1299 cells treated with DMSO; host or cells: NCI-H1299
Settings: NCI-H1299 cells, read-out: SMARCA2 MSD H1299 degradation 24 h: External Abs-DC50
# key: entry, value: DC50
measured.endpoint: DC50

INSERT INTO measurements (molecule, target_entity, reported_result) VALUES
  ('O=C1CCC(N2C(=O)c3cccc(OCCOCCc4cn(Cc5cccc(N6C[C@H]7C[C@@H]6CN7/C=C/C(=O)c6ccccc6O)n5)nn4)c3C2=O)C(=O)N1 (stereo partly drawn)', 'SMARCA2 (Homo sapiens)', '> 1 µM'),
  ('Cn1c(=O)n(C2CCC(=O)NC2=O)c2ccc(CCCOCCOCCNC(=O)CCCOc3cccc(N4C[C@H]5C[C@@H]4CN5/C=C/C(=O)c4ccccc4O)n3)cc21 (stereo partly drawn)', 'SMARCA2 (Homo sapiens)', '> 1 µM'),
  ('O=C1CCC(N2C(=O)c3cccc(OCCOCCCc4cn(Cc5cccc(N6C[C@H]7C[C@@H]6CN7/C=C/C(=O)c6ccccc6O)n5)nn4)c3C2=O)C(=O)N1 (stereo partly drawn)', 'SMARCA2 (Homo sapiens)', '> 1 µM');

====

# key: entry, value: DC50
Target: SMARCA4 (Homo sapiens, UniProt P51532)
Construct: SMARCA2 and SMARCA4 protein degradation in MV4-11 cells; endogenous in cells; host or cells: MV4-11
Sequence (P51532 whole entry): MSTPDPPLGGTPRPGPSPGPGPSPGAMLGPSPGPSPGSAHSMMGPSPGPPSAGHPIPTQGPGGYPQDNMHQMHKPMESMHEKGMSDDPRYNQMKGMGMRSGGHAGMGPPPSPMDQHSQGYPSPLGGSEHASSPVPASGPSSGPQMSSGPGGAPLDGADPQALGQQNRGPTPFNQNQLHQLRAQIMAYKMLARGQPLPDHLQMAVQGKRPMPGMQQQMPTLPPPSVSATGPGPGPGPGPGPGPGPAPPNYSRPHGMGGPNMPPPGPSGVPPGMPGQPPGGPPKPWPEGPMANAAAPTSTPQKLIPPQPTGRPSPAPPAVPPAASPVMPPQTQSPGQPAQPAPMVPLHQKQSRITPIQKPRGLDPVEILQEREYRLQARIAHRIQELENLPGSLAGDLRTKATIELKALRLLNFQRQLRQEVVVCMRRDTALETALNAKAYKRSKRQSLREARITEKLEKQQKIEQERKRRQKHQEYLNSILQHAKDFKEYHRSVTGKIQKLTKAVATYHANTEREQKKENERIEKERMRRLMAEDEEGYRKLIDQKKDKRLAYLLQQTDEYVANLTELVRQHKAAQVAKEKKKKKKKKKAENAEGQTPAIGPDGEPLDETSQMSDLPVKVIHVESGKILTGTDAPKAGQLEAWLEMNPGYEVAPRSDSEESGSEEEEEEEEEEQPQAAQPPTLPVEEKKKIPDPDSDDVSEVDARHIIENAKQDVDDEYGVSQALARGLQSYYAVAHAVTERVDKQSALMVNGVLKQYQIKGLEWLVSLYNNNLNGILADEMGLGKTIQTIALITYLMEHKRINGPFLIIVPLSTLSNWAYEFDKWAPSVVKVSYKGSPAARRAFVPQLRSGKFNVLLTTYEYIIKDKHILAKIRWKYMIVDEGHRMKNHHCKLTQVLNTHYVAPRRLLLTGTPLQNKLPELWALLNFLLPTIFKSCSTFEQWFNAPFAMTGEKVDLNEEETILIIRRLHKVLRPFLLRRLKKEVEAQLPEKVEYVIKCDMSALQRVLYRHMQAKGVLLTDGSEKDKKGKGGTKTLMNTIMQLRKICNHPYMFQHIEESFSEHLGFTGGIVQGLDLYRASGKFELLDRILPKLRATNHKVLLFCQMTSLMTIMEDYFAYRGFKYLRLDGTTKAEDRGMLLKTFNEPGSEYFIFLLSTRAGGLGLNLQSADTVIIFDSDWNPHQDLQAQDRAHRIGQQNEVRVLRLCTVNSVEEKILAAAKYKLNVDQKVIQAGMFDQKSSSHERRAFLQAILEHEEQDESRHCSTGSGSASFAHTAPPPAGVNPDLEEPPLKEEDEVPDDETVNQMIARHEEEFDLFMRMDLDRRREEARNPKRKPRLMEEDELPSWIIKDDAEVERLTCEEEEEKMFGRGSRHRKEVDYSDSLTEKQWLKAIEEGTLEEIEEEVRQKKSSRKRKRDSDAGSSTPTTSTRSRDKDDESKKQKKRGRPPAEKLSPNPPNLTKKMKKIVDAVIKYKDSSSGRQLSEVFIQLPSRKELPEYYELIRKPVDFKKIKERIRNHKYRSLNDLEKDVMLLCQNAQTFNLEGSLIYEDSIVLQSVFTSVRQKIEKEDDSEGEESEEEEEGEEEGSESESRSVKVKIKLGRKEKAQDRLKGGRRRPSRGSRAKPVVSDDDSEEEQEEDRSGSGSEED
Assay: SMARCA4 Western blot MV4-11 degradation
Type: cell-based
Conditions: MV4-11 cells, 24 h, read-out: SMARCA4 WB MV411 degradation 24 h: Average external-Abs DC50
measured.endpoint: DC50

INSERT INTO measurements (compound, measured_endpoint, reported_result) VALUES
  ('Cc1ncsc1-c1ccc(CNC(=O)[C@@H]2C[C@@H](O)CN2C(=O)[C@@H](NC(=O)CN(C)Cc2ccc(N3CCN(c4cc(-c5ccccc5O)nnc4N)CC3)cc2)C(C)(C)C)cc1', 'DC50', '> 1 µM'),
  ('Cc1ncsc1-c1ccc(CNC(=O)[C@@H]2C[C@@H](O)CN2C(=O)[C@@H](NC(=O)C2CCC(c3cnc(N4C5CCC4CN(c4cc(-c6ccccc6O)nnc4N)C5)nc3)CC2C)C(C)(C)C)cc1 (some centres unmarked) [I-411]', 'DC50', '< 0.1 µM'),
  ('Cc1ncsc1-c1ccc(CNC(=O)[C@@H]2C[C@@H](O)CN2C(=O)[C@@H](NC(=O)[C@H]2CC[C@H](N3CCC(n4cc(-c5cc(-c6ccccc6O)nnc5N)cn4)CC3)CC2)C(C)(C)C)cc1', 'DC50', '> 1 µM'),
  ('Cc1ncsc1-c1ccc(CNC(=O)[C@@H]2C[C@@H](O)CN2C(=O)[C@@H](NC(=O)[C@H]2CC[C@H](Cc3ccc(-c4cnc(N5C6CCC5CN(c5cc(-c7ccccc7O)nnc5N)C6)nc4)cc3)CC2)C(C)(C)C)cc1', 'DC50', '0.1 to 0.5 µM'),
  ('Cc1ncsc1-c1ccc(CNC(=O)[C@@H]2C[C@@H](O)CN2C(=O)[C@@H](NC(=O)CCCCN2CCC(C(=O)N3CCC(Cn4cc(-c5cc(-c6ccccc6O)nnc5N)cn4)CC3)CC2)C(C)(C)C)cc1', 'DC50', '> 1 µM');
